Tested on: MOLT-4
ASSAY_DETAILS: NCI tumour cell line growth inhibition, 48 h
Calls of active or inactive are those of the source. Cut-off read from the data, not from the text of the source: active = GI50 up to about 1.1 µM and inactive = higher.
Pick one and only one: 1 (active), -1 (inactive)

Solved entries:
CCCCN/N=N/c1cn(C2OC(CO)C(O)C2O)c(=O)[nH]c1=O (centres undefined)    -1
Clc1ccc(COc2ccccc2/C=N/c2c(-c3ccco3)nc3ccccn23)c(Cl)c1    -1
C#CC(O)/C=C/C(O)CCCC(O)CC#CC(O)C#CCCCCC(O)/C=C/CCCC(O)/C=C/CCCCCCCCCCCCCC(O)C(O)C#CC(=O)O (centres undefined)    -1

Q. Please indicate how the test categorized `c1ccc(CN2CCCN3CCN(CCCN(Cc4ccccc4)CC3)CC2)cc1` .
A. -1

Q. Please indicate how the test categorized `C/C(=N\NC(=O)c1ccncc1)c1cccc(C(F)(F)F)c1` .
A. -1

Q. Please indicate how the test categorized CC(=O)Nc1ccc2c3c(cc(O)c2c1)N(C(=O)CCCCCCC(=O)Nc1ccc2c4c(cc(O)c2c1)N(C(=O)OC(C)(C)C)CC4CCl)CC3CCl (centres undefined) .
A. 1

Q. Please indicate how the test categorized `Cc1nnc2n1N=C(c1cc(F)c(Cl)cc1Cl)/C(=C/c1ccc3c(c1)OCO3)S2` .
A. -1

Q. Please indicate how the test categorized Nc1nncc2c1ccn2C1OC(CO)C(O)C1O (centres undefined) .
A. -1

Q. Please indicate how the test categorized `CC(C)(C)c1cc[n+](C[n+]2ccc(C(C)(C)C)cc2)cc1` .
A. -1
